- Experiment: qHTS of pediatric cancer cell lines to identify multiple opportunities for drug repurposing: Primary screen for DAOY cells (AID 1347090); further: nearly all actives have a fitted effect of over 55% in size
- Measurement Context: DAOY medulloblastoma viability, CellTiter-Glo luminescence, 48 h; series mostly up to 46 µM
Records with an inconclusive call do not appear. The source made the active and inactive calls. The call rests on the fitted dose curve; in most records, active means well fitted cell-killing curve with a large enough effect; inconclusive means small, poorly fitted or top-dose-only effect; inactive means flat fitted curve, though single readings scatter.
Outcomes you can answer with include only these: y = active, n = inactive

[
  {
    "Compound": "C=C1C(=O)[C@@]23C(CC[C@@H]1[C@H]2O)[C@@]12CO[C@]3(O)[C@@H](O)[C@@H]1C(C)(C)CC[C@@H]2O (stereo partly specified)",
    "Discrete Label": "y"
  },
  {
    "Compound": "CCCNC(=O)NS(=O)(=O)c1ccc(Cl)cc1",
    "Discrete Label": "n"
  },
  {
    "Compound": "COc1ccc2cccc(CCNC(C)=O)c2c1",
    "Discrete Label": "n"
  },
  {
    "Compound": "CCOC(=O)O[C@]1(C(=O)OCCl)CC[C@@H]2[C@H]3CCC4=CC(=O)C=C[C@]4(C)[C@@H]3[C@@H](O)C[C@@]21C",
    "Discrete Label": "n"
  }
]

Test call, this compound: NC1CCC(Nc2nc(Nc3ccc(C(=O)N4CCCCC4)cc3)c3ncn(-c4cccc(F)c4)c3n2)CC1 (stereo unspecified)
n

Test call, this compound: "CC1(C)S[C@H]2[C@H](NC(=O)[C@@H](N)c3ccc(O)cc3)C(=O)N2[C@@H]1C(=O)O"
y

Test call, this compound: "O=c1c(-c2ccc(O)cc2)coc2cc(O[C@@H]3O[C@H](CO)[C@H](O)[C@H](O)[C@H]3O)ccc12"
n

Test call, this compound: "CC=CCC=CCCC(=O)[C@H]1O[C@@H]1C(N)=O"
n

Test call, this compound: "COc1ccc(-c2coc3cc(O)ccc3c2=O)cc1"
n

Test call, this compound: "CCN(CC)C(=O)c1ccc(O)c(OC)c1"
n

Test call, this compound: "CC(C)(Cc1ccc2ccccc2c1)NC[C@@H](O)COc1cccc(Cl)c1C#N"
n

* * *

- Experiment: Primary qHTS for inhibitors of nuclear receptor binding SET domain protein 2 (NSD2) in an RCH-ACV wild type WT cells (2C) (AID 1645877); further: nearly all actives have a fitted effect of over 70% in size
- Measurement Context: RCH-ACV (leukaemia line) NSD2 WT (2C) viability, CellTiter-Glo, 72 h; series mostly up to 44.9 µM
Records with an inconclusive call do not appear. Active and inactive are the calls of the source. Calls come from the whole dose curve; as a rule, active = well fitted inhibition curve with a large enough effect; inconclusive = small, poorly fitted or top-dose-only effect; inactive = no such curve, though single readings can be large or run the other way.
Outcomes you can answer with include only these: active, inactive

Would you please look over these solved cases?
[
  {
    "Compound": "CC/C(=C(\\c1ccccc1)c1ccc(OCCN(C)C)cc1)c1ccccc1",
    "Discrete Label": "active"
  },
  {
    "Compound": "Cn1c(N2CCCCS2(=O)=O)nc(C(=O)NCc2ccc(F)cc2)c(O)c1=O",
    "Discrete Label": "inactive"
  },
  {
    "Compound": "COc1ccc(C2Sc3ccccc3N(CCN(C)C)C(=O)C2OC(C)=O)cc1 (stereo not given)",
    "Discrete Label": "inactive"
  },
  {
    "Compound": "N[C@@]1(C(=O)O)CS(=O)(=O)[C@H]2[C@H](C(=O)O)[C@H]21",
    "Discrete Label": "inactive"
  },
  {
    "Compound": "NS(=O)(=O)c1ccc(NC2=CC(=O)c3ccccc3C2=O)cc1",
    "Discrete Label": "inactive"
  }
]

Test call, this compound: "CN[C@@H](C)C(=O)N[C@H]1CN(C(=O)CC(C)C)CC[C@H]2CC[C@@H](C(=O)NC(c3ccccc3)c3ccccc3)N2C1=O"
inactive

Test call, this compound: CCNc1cc(NC2CCC(O)CC2)nc(Nc2ccc3c(ccn3Cc3ccccc3)c2)n1 (stereo not given)
active

Test call, this compound: "CC(C)(C(=O)NCC(F)(F)C(F)(F)F)C(=O)N[C@@H]1C(=O)Nc2ccccc2-c2ccccc21"
inactive

Test call, this compound: "O=C(O)CCc1nc(-c2ccccc2)c(-c2ccccc2)o1"
inactive

Test call, this compound: "O=c1cc(-c2ccccc2)oc2cc(O)cc(O)c12"
active

Test call, this compound: "O=c1cc(N2CCOCC2)oc2c(-c3cccc4c3sc3ccccc34)cccc12"
active

Test call, this compound: "Cc1ccc(F)c(NC(=O)Nc2ccc(-c3cccc4[nH]nc(N)c34)cc2)c1"
active

Test call, this compound: "COc1ccccc1N1CCN(CCCNc2cc(=O)n(C)c(=O)n2C)CC1"
inactive

Test call, this compound: "NC(N)=Nc1nc(CSCC/C(N)=N/S(N)(=O)=O)cs1"
inactive

Test call, this compound: C=C1C(=O)[C@@]23C(CC[C@@H]1[C@H]2O)[C@@]12CO[C@]3(O)[C@@H](O)[C@@H]1C(C)(C)CC[C@@H]2O (stereo not given in full)
active

Test call, this compound: "CO[C@H]1C(=O)[C@]2(C)[C@@H](OC)C[C@H]3OC[C@@]3(OC(C)=O)[C@H]2[C@H](OC(=O)c2ccccc2)[C@]2(O)C[C@H](OC(=O)[C@H](O)[C@@H](NC(=O)OC(C)(C)C)c3ccccc3)C(C)=C1C2(C)C"
active

Test call, this compound: "N#Cc1ccc(NC(=O)Nc2ccccc2Br)c2n[nH]nc12"
inactive

Test call, this compound: "COc1ccc(-c2cc(=O)c3c(O)cc(O)cc3o2)cc1O"
active

Test call, this compound: "Clc1cc(Cl)cc(CNc2ncncc2-c2ccc3c(c2)OCO3)c1"
active

Test call, this compound: CCOC(=O)C1=C(N)Oc2ccc(Br)cc2C1C(C#N)C(=O)OCC (stereo not given)
inactive

Test call, this compound: "O=C1NC(=O)C(c2ccccc2)(c2ccccc2)N1"
inactive

Test call, this compound: "CC(C)(C)NC(=O)Nc1cccc(Nc2ncc(F)c(NC(C)(C)CO)n2)c1"
active

Test call, this compound: "CC(=O)N[C@@H](CS)C(=O)O"
inactive

Test call, this compound: "COc1cccc(-c2cc(=O)c3ccccc3o2)c1N"
inactive

Test call, this compound: "CCN(CC)CCNC(=O)c1ccc(N)cc1"
inactive

Test call, this compound: "NCCS"
inactive

Test call, this compound: "N#C[C@H]1C[C@H]2C[C@@H]2N1C(=O)[C@@H](N)C12CC3CC(CC(O)(C3)C1)C2"
inactive

Test call, this compound: "O=C(O)c1cc(O)c2c(c1)C(=O)c1cccc(O)c1C2=O"
inactive

* * *

- Experiment: qHTS Assay for Lipid Storage Modulators (AID 1519); further: on the % scale 0 is the no-effect control and ±100 the full control effect
- Measurement Context: Drosophila S3 cells, BODIPY lipid droplet/cell ratio, laser cytometry; at 25.7 µM (top of the series); cells loaded with oleic acid
- Experimental: NIH Molecular Libraries Probe Production Centers Network [MLPCN] NIH Chemical Genomics Center [NCGC] Assay Submitter (PI): Beller, Mathias; Max-Planck-Institut fur Biophysikalische Chemie […] We dispensed 4 uL of cells at 1.25 x 10^6 cells/mL into LoBase Aurora COC 1,536-well plates (black walled, clear bottom) with a bottle-valve solenoid-based dispenser (Aurora) to obtain 5,000 cells/well. […] The ratio of the total intensity in PMT channel 1 over total intensity of channel 3 was also calculated. […]
Inconclusive results are not listed.
Answer each item with its documented activity change, negative = inhibition.
Answers are plain numbers, in %.

Look over these answered cases.
[
  {
    "Mol": "O=c1cc(-c2ccccc2)oc2cc(O)cc(O)c12",
    "Unit Descriptor": "%",
    "Numeric Value": -11.6
  },
  {
    "Mol": "NC(N)=Nc1nc(CSCC/C(N)=N/S(N)(=O)=O)cs1",
    "Unit Descriptor": "%",
    "Numeric Value": -0.328
  },
  {
    "Mol": "COCCCCC(=NOCCN)c1ccc(C(F)(F)F)cc1",
    "Unit Descriptor": "%",
    "Numeric Value": 0.501
  },
  {
    "Mol": "Nc1ncnc2c1ncn2[C@@H]1O[C@@H](CO)[C@H](O)[C@H]1O",
    "Unit Descriptor": "%",
    "Numeric Value": -0.901
  },
  {
    "Mol": "C[N+](C)(C)CCCCCC[N+](C)(C)C",
    "Unit Descriptor": "%",
    "Numeric Value": -1.97
  },
  {
    "Mol": "COc1ccccc1N1CCN(CCCNc2cc(=O)n(C)c(=O)n2C)CC1",
    "Unit Descriptor": "%",
    "Numeric Value": 0.233
  },
  {
    "Mol": "CCN(CC)C(=O)c1ccc(O)c(OC)c1",
    "Unit Descriptor": "%",
    "Numeric Value": 0.695
  }
]

Continue with the compound presented below.
activity change, negative = inhibition reported for this compound "O=C(O)CCc1nc(-c2ccccc2)c(-c2ccccc2)o1" : 0.686

* * *

- Experiment: Quantitative High-Throughput drug screen in 47 multiple myeloma cell lines against the NCATS MIPE library collection: OPM2_DSMZ cell viability assay (AID 1919872); further: nearly all actives have a fitted effect of over 30% in size; further: potency means the concentration at half of the fitted maximal effect
- Measurement Context: OPM2 myeloma viability, CellTiter-Glo ATP luminescence, 48 h; series mostly up to 45.8 µM
Inconclusive results are not listed. Activity calls are given as the source filed them. Calls come from the whole dose curve; as a rule, active = well fitted cell-killing curve with a large enough effect; inconclusive = small, poorly fitted or top-dose-only effect, or effect the other way; inactive = no such curve, though single readings can be large or run the other way.
Quantity Name: Potency

Look over these answered cases.
[
  {
    "Molecule": "CC[C@]1(O)C[C@@H]2CN(CCc3c([nH]c4ccccc34)[C@@](C(=O)OC)(c3cc4c(cc3OC)N(C=O)[C@@H]3C45CCN4CC=C[C@](CC)([C@H]45)[C@@H](OC(C)=O)[C@]3(O)C(=O)OC)C2)C1 (stereo partly drawn)",
    "Potency": "23.5 µM (active)"
  },
  {
    "Molecule": "CC(C)C(=O)Oc1ccc(CO)cc1[C@H](CCN(C(C)C)C(C)C)c1ccccc1",
    "Potency": "inactive"
  },
  {
    "Molecule": "C[C@@H]1CCN(C(=O)CC#N)C[C@H]1N(C)c1ncnc2[nH]ccc12",
    "Potency": "inactive"
  },
  {
    "Molecule": "CC(C)C[C@H](CC(=O)O)C(=O)N[C@@H](Cc1c[nH]c2ccccc12)C(=O)N[C@@H](C)c1ccccc1",
    "Potency": "inactive"
  },
  {
    "Molecule": "CC(C)=CC[C@@H](O)C1=CC(=O)c2c(O)ccc(O)c2C1=O",
    "Potency": "1.32 µM (active)"
  },
  {
    "Molecule": "COc1cccc([C@@H](C)NCCCc2ccccc2Cl)c1",
    "Potency": "inactive"
  },
  {
    "Molecule": "COc1ccc(Cc2nccc3cc(OC)c(OC)cc23)cc1OC",
    "Potency": "11.8 µM (active)"
  },
  {
    "Molecule": "O=C(O)C=Cc1ccc(O)c(O)c1",
    "Potency": "inactive"
  }
]

Value sought for every listed molecule: Potency.
1. O=C(CCCCCCC(=O)Nc1ccccc1)NO
2. CN(C)C1CCN(C(=O)c2ccc(NC(=O)Nc3nc(N4CCOCC4)nc(N4CCOCC4)n3)cc2)CC1
3. Cc1[nH]c(C=C2C(=O)Nc3ccc(S(=O)(=O)Cc4c(Cl)cccc4Cl)cc32)c(C)c1C(=O)N1CCC[C@H]1CN1CCCC1

1. 4.69 µM (active)
2. 0.0209 µM (active)
3. 26.4 µM (active)

Value sought for every listed molecule: Potency.
1. O=c1cc(-c2ccccc2)oc2cc(O)cc(O)c12
2. N[C@@]1(C(=O)O)CS(=O)(=O)[C@H]2[C@H](C(=O)O)[C@H]21
3. NS(=O)(=O)c1cccc2c1C(=O)c1cccc(O)c1C2=O

inactive
inactive
2.64 µM (active)

Value sought for every listed molecule: Potency.
1. CN[C@@H](C)C(=O)N[C@H]1CN(C(=O)CC(C)C)CC[C@H]2CC[C@@H](C(=O)NC(c3ccccc3)c3ccccc3)N2C1=O
2. CO[C@H]1C=CC=C(C)C(=O)NC2=CC(=O)C(NCCN(C)C)=C(C[C@@H](C)C[C@H](OC)[C@@H](O)[C@@H](C)C=C(C)[C@@H]1OC(N)=O)C2=O
3. CC1(C)CCC[C@@]2(C)[C@@H]1CC[C@@]1(C)OC(=O)C[C@H]21
4. c1cc(-c2sc(-c3ccncc3)c(-c3ccncc3)c2-c2ccncc2)ccn1

["inactive", "0.0743 µM (active)", "inactive", "inactive"]
